Tested on: K562;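 note: after 48 h exposure read by CellTiter-Glo luminescence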
testMethodNotes: cell viability relative to vehicle control; higher = less cytotoxic
testSettings: 10 µM; SRSF2 genotype: SRSF2 wt/wt
Catalogue of compounds with associated cell viability

>  <compound>
CCn1cc(C(=O)O)c(=O)c2cc(F)c(N3CCNCC3)nc21

>  <system>
K562;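 note: after 48 h exposure read by CellTiter-Glo luminescence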

>  <measurementUnits>
%

>  <cell viability>
108

$$$$
>  <compound>
CC(=O)OCC(=O)[C@@]12OC(C)(C)O[C@@H]1C[C@H]1[C@@H]3C[C@H](F)C4=CC(=O)C=C[C@]4(C)[C@@]3(F)[C@@H](O)C[C@@]12C [Fluocinonide (Vanos)]

>  <system>
K562;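 note: after 48 h exposure read by CellTiter-Glo luminescence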

>  <measurementUnits>
%

>  <cell viability>
108

$$$$
>  <compound>
N=C1S/C(=C\c2ccc(-c3ccc4c(c3)C(=O)NC4=O)o2)C(=O)N1c1ccc(Br)cc1

>  <system>
K562;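 note: after 48 h exposure read by CellTiter-Glo luminescence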

>  <measurementUnits>
%

>  <cell viability>
87.4

$$$$
>  <compound>
[Na+].[Na+].[Na+].[Na+].[Na+].[Na+].[O]=[W](=[O])([O-])[O-].[O]=[W](=[O])([O-])[O-].[O]=[W](=[O])([O-])[O-].[O]=[W](=[O])=[O].[O]=[W](=[O])=[O].[O]=[W](=[O])=[O].[O]=[W](=[O])=[O].[O]=[W](=[O])=[O].[O]=[W](=[O])=[O].[O]=[W](=[O])=[O].[O]=[W](=[O])=[O].[O]=[W](=[O])=[O] [SodiuM Metatungstate]

>  <system>
K562;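 note: after 48 h exposure read by CellTiter-Glo luminescence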

>  <measurementUnits>
%

>  <cell viability>
106

$$$$
>  <compound>
NS(=O)(=O)c1cc(Cl)c(Cl)c(S(N)(=O)=O)c1 [Dichlorphenamide (Diclofenamide)]

>  <system>
K562;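 note: after 48 h exposure read by CellTiter-Glo luminescence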

>  <measurementUnits>
%

>  <cell viability>
95.9

$$$$
